System: OVCAR-4 ovarian
Assay: NCI-60 one-dose screen, 48 h (100 = growth as untreated, 0 = no growth, -100 = all killed)
Settings: 10 µM unless noted
Protocol: Growth inhibition of the OVCAR-4 human tumor cell line is measured as a screen for anti-cancer activity. Cells are grown in 96 well plates and exposed to the test compound for 48 hours. Compounds are tested at a single concentration, which is 10^-5 M for most compounds. The reported endpoint is percent growth (GI% or GIPRCNT), where numbers from 0 - 100% represent growth inhibition, and numbers from -100% - 0 represent cell death. For example, a value of 40 represents 60% growth inhibition. […]
Compounds without any hit were thinned out: in the full panel of roughly 83,000, 20% have a hit.
Each entry below lists one item and its recorded growth value.
# unit: % | format: bare number

Worked examples follow.
structure_smiles=COc1ccc(-c2nn(-c3ccccc3)cc2/C=C2/SC(=S)N(C)C2=O)cc1 measured_metric=growth value_measured=-24
structure_smiles=CN1CCN(c2ccc(C(=O)Nc3cccc(C#Cc4cccc5[nH]nc(N)c45)c3)cc2C(F)(F)F)CC1 measured_metric=growth value_measured=-0.309
structure_smiles=Fc1ccc(Nc2nc3nonc3nc2Nc2ccc(I)cc2)cc1 measured_metric=growth value_measured=17.8

Proceeding to the next compound to report its growth.
Name the recorded growth for `Clc1ccc(Nc2nnc(COc3ccccc3)c3ccccc23)cc1` .
18.1
